Entries annotated with measured excess molar enthalpy
- experimental.details: excess molar enthalpy (molar enthalpy of mixing); xn = mol fraction of the nth substance listed
- test.parameters: 298.15 K; 101.33 kPa; Liquid; x1 = 0.9
observation.type: excess molar enthalpy (kcal/mol)

In [3]: df
Out[3]:
                                   compound  readout_number
0  COC(F)(F)C(F)(F)C(F)(F)C(F)(F)F [1-methoxy-nonafluorobutane] + COCCOCCOC         0.00844
1  COC(F)(F)C(F)(F)C(F)(F)C(F)(F)F [1-methoxy-nonafluorobutane] + COCCO           0.121
2  COC(F)(F)C(F)(F)C(F)(F)C(F)(F)F [1-methoxy-nonafluorobutane] + CCOCCO           0.121
3  COC(F)(F)C(F)(F)C(F)(F)C(F)(F)F [1-methoxy-nonafluorobutane] + CCCCOCCO           0.142

---

- experimental.details: excess molar enthalpy (molar enthalpy of mixing); xn = mol fraction of the nth substance listed
- test.parameters: 298.15 K; 101.33 kPa; Liquid; x1 = 0.2
Item-by-item account of excess molar enthalpy
observation.type: excess molar enthalpy (kcal/mol)

>>> df
                                   compound  readout_number
0  COC(F)(F)C(F)(F)C(F)(F)C(F)(F)F [1-methoxy-nonafluorobutane] + CCOCCO          0.0937
1  COC(F)(F)C(F)(F)C(F)(F)C(F)(F)F [1-methoxy-nonafluorobutane] + COCCOCCOC          0.0883
2  COC(F)(F)C(F)(F)C(F)(F)C(F)(F)F [1-methoxy-nonafluorobutane] + CCCCOCCO           0.122
3  COC(F)(F)C(F)(F)C(F)(F)C(F)(F)F [1-methoxy-nonafluorobutane] + COCCO             0.1

---

- experimental.details: excess molar enthalpy (molar enthalpy of mixing); xn = mol fraction of the nth substance listed
- test.parameters: 298.15 K; 101.33 kPa; Liquid; x1 = 0.1
observation.type: excess molar enthalpy (kcal/mol)

>>> print(df.to_string())
                                   compound  readout_number
0  COC(F)(F)C(F)(F)C(F)(F)C(F)(F)F [1-methoxy-nonafluorobutane] + COCCOCCOC           0.066
1  COC(F)(F)C(F)(F)C(F)(F)C(F)(F)F [1-methoxy-nonafluorobutane] + COCCO          0.0727
2  COC(F)(F)C(F)(F)C(F)(F)C(F)(F)F [1-methoxy-nonafluorobutane] + CCOCCO          0.0615
3  COC(F)(F)C(F)(F)C(F)(F)C(F)(F)F [1-methoxy-nonafluorobutane] + CCCCOCCO          0.0726

---

- experimental.details: excess molar enthalpy (molar enthalpy of mixing); xn = mol fraction of the nth substance listed
- test.parameters: 298.15 K; 101.33 kPa; Liquid; x1 = 0.95
Here, each record is paired with measured excess molar enthalpy data.
observation.type: excess molar enthalpy

In [3]: df
Out[3]:
                                   molecule       observation_type            result
0  COC(F)(F)C(F)(F)C(F)(F)C(F)(F)F [1-methoxy-nonafluorobutane] + COCCOCCOC  excess molar enthalpy  0.00265 kcal/mol
1  COC(F)(F)C(F)(F)C(F)(F)C(F)(F)F [1-methoxy-nonafluorobutane] + CCCCOCCO  excess molar enthalpy      0.1 kcal/mol
2  COC(F)(F)C(F)(F)C(F)(F)C(F)(F)F [1-methoxy-nonafluorobutane] + CCOCCO  excess molar enthalpy   0.0866 kcal/mol
3  COC(F)(F)C(F)(F)C(F)(F)C(F)(F)F [1-methoxy-nonafluorobutane] + COCCO  excess molar enthalpy   0.0872 kcal/mol
